Molecular target: Bifunctional epoxide hydrolase 2 (Homo sapiens, UniProt P34913)
Sequence (P34913 whole entry): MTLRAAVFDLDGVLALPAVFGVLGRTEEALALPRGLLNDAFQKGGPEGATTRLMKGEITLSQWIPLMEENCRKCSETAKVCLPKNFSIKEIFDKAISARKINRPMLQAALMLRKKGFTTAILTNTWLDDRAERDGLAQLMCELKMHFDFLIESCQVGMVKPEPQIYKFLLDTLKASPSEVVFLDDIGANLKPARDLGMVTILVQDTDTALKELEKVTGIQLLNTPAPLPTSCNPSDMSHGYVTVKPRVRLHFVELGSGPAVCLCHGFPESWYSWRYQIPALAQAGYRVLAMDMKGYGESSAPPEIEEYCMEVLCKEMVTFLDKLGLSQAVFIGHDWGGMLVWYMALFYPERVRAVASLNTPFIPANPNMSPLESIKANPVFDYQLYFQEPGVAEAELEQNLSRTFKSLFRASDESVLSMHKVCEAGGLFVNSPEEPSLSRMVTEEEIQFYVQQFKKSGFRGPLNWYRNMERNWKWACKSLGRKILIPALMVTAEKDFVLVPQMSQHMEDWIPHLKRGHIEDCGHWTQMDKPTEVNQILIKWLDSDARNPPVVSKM
Assay: Inhibition of human sEH using epoxy flour 7 as substrate measured after 30 mins by cell-based fluorescence assay
experimental endpoint: IC50 (nM)

I: NS(=O)(=O)c1ccc(-n2nc(C(=O)NCCCCCCCCCCC(=O)O)cc2-c2ccccc2)cc1
II: CCOC(=O)C1CCN(C(=O)Nc2cc(-c3ccccc3)n(-c3ccc(S(N)(=O)=O)cc3)n2)CC1
Prompt line: Lowest IC50? choose I or II Identify your pick by its label.
Response line: II

1: NS(=O)(=O)c1ccc(-n2nc(NC(=O)NC3CCCCC3)cc2-c2ccccc2)cc1
2: NS(=O)(=O)c1ccc(-n2nc(NC(=O)NCCCC(=O)O)cc2-c2ccccc2)cc1
Prompt line: Which value of IC50 is smaller, the one for 1 or the one for 2 ? To answer, give the label that identifies your chosen option.
Response line: 1

a: NS(=O)(=O)c1ccc(-n2nc(NC(=O)Nc3ccc(C(F)(F)F)cc3)cc2-c2ccccc2)cc1
b: NS(=O)(=O)c1ccc(-n2nc(C(=O)NCCCC(=O)O)cc2-c2ccccc2)cc1
Prompt line: API: POST /compare with a and b ; response names the item with higher IC50. Which one? Tell me its label.
Response line: b

###

Below, each entry is listed alongside its reported IC50.
Target: Prostaglandin G/H synthase 1 (Homo sapiens, UniProt P23219)
Sequence (P23219 whole entry): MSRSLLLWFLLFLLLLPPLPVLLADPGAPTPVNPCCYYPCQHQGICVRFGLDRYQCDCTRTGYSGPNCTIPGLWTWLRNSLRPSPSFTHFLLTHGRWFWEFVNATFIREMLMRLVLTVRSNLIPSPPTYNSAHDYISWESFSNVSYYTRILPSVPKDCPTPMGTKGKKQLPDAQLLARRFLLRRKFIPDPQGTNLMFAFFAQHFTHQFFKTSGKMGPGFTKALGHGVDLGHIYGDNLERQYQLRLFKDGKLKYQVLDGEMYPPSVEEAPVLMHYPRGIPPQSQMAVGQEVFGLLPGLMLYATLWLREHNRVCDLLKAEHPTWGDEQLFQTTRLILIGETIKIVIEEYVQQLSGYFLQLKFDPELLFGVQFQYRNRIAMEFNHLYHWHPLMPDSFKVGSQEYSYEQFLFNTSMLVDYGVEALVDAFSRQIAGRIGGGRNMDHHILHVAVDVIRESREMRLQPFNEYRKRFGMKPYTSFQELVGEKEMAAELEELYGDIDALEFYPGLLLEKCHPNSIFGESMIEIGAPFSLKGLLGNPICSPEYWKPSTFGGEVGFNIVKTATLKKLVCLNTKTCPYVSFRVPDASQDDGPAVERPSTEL
Test: Inhibition of recombinant human COX1 using arachidonic acid as substrate preincubated for 5 mins followed by substrate addition and measured after 2 mins by Ellman's reagent based enzyme immunoassay
Respond with the bare value in µM.

NS(=O)(=O)c1ccc(-n2nc(C(=O)NC34CC5CC(CC(C5)C3)C4)cc2-c2ccccc2)cc1 8.99

We now examine a further molecule.
// returns IC50 for NS(=O)(=O)c1ccc(-n2nc(NC(=O)NC34CC5CC(CC(C5)C3)C4)cc2-c2ccccc2)cc1 with Prostaglandin G/H synthase 1 (Homo sapiens, UniProt P23219); value = 11.8

###

Target: Bifunctional epoxide hydrolase 2 (Homo sapiens, UniProt P34913)
Test: Inhibition of human sEH using epoxy flour 7 as substrate measured after 30 mins by cell-based fluorescence assay
pIC50: −log10 of the molar value.
experimental endpoint: pIC50

// below: answered compounds
CCOC(=O)C1CCN(C(=O)c2cc(-c3ccccc3)n(-c3ccc(S(N)(=O)=O)cc3)n2)CC1 8.79
NS(=O)(=O)c1ccc(-n2nc(NC(=O)NCCCCCCCCCCC(=O)O)cc2-c2ccccc2)cc1 8.80
NS(=O)(=O)c1ccc(-n2nc(NC(=O)NC34CC5CC(CC(C5)C3)C4)cc2-c2ccccc2)cc1 9.26
NS(=O)(=O)c1ccc(-n2nc(C(=O)NC34CC5CC(CC(C5)C3)C4)cc2-c2ccccc2)cc1 8.94

A: NS(=O)(=O)c1ccc(-n2nc(C(=O)NC3CCCCC3)cc2-c2ccccc2)cc1
B: NS(=O)(=O)c1ccc(-n2nc(C(=O)Nc3ccc(C(F)(F)F)cc3)cc2-c2ccccc2)cc1
Prompt line: Of A and B , which one carries the higher reported pIC50? State your choice using its label.
Response line: B
